target: CDK6 (Homo sapiens (Human), UniProt Q00534); assay: Phospho-Serine 795 Rb ELISA assay in MV4-11 cells; conditions: overnight treatment, phospho-Rb S795, read-out: CDK6 pRB S795 ELISA MV4-11 cells IC50
Sequence (Q00534 whole entry): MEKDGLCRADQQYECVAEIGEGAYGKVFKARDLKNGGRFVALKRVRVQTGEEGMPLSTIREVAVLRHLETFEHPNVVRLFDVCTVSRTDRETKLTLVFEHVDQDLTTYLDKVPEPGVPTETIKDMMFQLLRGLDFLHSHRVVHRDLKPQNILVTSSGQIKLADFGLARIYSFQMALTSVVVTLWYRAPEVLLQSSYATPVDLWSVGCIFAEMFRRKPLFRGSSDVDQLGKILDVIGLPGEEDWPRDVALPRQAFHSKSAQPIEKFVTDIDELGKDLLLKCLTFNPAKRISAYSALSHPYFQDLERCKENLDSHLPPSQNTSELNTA
Sequence (P30281 whole entry partner): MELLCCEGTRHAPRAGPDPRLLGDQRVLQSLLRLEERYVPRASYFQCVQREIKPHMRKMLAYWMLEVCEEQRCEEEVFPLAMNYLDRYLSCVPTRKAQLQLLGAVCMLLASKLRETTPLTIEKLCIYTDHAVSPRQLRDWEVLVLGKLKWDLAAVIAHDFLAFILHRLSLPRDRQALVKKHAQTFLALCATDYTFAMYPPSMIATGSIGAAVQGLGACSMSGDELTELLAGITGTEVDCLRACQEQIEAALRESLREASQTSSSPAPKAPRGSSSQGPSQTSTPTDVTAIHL
Catalogue of log10 IC50 values
Lab note - IC50 converted to log10 from values in nM.

- chemical.string: "CC(C)n1c(C(C)(C)O)nc2c(F)cc(-c3nc(N[C@@H]4CCN(S(C)(=O)=O)C[C@H]4O)ncc3Cl)cc21"
  recorded.measurement: 1.41
- chemical.string: "CC(C)(C)n1cnc2c(F)cc(-c3nc(N[C@@H]4CCN(S(C)(=O)=O)C[C@H]4O)ncc3F)cc21"
  recorded.measurement: 1.60
- chemical.string: "CC(C)n1c(CN2C[C@@](C)(O)[C@@H]2C)nc2c(F)cc(-c3nc(N[C@@H]4CCOC[C@H]4O)ncc3Cl)cc21"
  recorded.measurement: 2.34
- chemical.string: "CC1(C)OCCn2nc3c(F)cc(-c4nc(N[C@@H]5CCOC[C@H]5O)ncc4Cl)cc3c21"
  recorded.measurement: 2.43
- chemical.string: "CC(C)n1c([C@@H](C)O)nc2c(F)cc(-c3nc(N[C@@H]4CCOC[C@H]4O)ncc3Cl)cc21"
  recorded.measurement: 2.44

So the reported log10 IC50 for "Cc1nc2ccc(-c3cc(N[C@@H]4CCN(S(C)(=O)=O)C[C@H]4O)ncc3Cl)nc2n1C(C)C" , on CDK6 (Homo sapiens (Human), UniProt Q00534), turned out to be 2.24

So the reported log10 IC50 for "CC(C)n1c(C(C)(C)N)nc2c(F)cc(-c3nc(N[C@@H]4CCOC[C@H]4O)ncc3Cl)cc21" , on CDK6 (Homo sapiens (Human), UniProt Q00534), turned out to be 2.33
